system: HCC1569; experiment: cell number relative to DMSO (% of DMSO); higher = more cells (less growth inhibition / toxicity); details: concentration: 10 µM; 24 h;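 also: TDF denotes transformed human dermal fibroblasts of mesenchymal origin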
Readout: cell number
Could you keep your reply to the number by itself?

Reported cell number of Nc1ncnc2c1nc(N)n2[C@@H]1O[C@H](CO)[C@@H](O)[C@H]1O : 25.5

According to the records, this compound COC1C(OC(=O)c2ccc(C)[nH]2)C(O)C(Oc2ccc3c(O)c(NC(=O)c4c[nH]c(C(=O)Nc5c(O)c6ccc(OC7OC(C)(C)C(OC)C(OC(=O)c8ccc(C)[nH]8)C7O)c(C)c6oc5=O)c4C)c(=O)oc3c2C)OC1(C)C (stereo unspecified) displays cell number of 94.7

cell number measured on O=C(O)CCCC=CCC1C(O)CC(O)C1C=CC(O)COc1cccc(C(F)(F)F)c1 (stereo unspecified) = 100

Value source: the supplement of paper PMC7156485
